Test system: M14
procedure_text: NCI tumour cell line growth inhibition, 48 h
Calls of active or inactive are those of the source. Rule as the data show it: active = GI50 up to about 1.1 µM and inactive = higher.
# GI50 annotations
assay_readout: GI50

>>> result("CNS(=O)(=O)NNS(=O)(=O)c1ccc(OC)cc1")
"> 100 µM (inactive)"
>>> result("CC(C)(C)c1cc(OCc2nn3c(Cc4ccccc4)nnc3s2)c(Cl)cc1OCc1nn2c(Cc3ccccc3)nnc2s1")
"29.7 µM (inactive)"
>>> result("O=C(NC12CC3CC(CC(C3)C1)C2)n1cnc2cncnc21")
"54.7 µM (inactive)"
>>> result("N#CC(C(=O)/C(=N\\Nc1nc(S)nn1N)C(C#N)c1ccc(Cl)cc1)c1ccc(Cl)cc1 (stereo not given)")
"> 100 µM (inactive)"
>>> result("NC1CCCCC1NCCNC1CCCCC1N (stereo not given)")
"> 100 µM (inactive)"
